EXPERIMENT SUMMARY: NCI Yeast Anticancer Drug Screen. Data for the bub3 strain (AID 167)
CONDITION SET: S. cerevisiae bub3 mutant strain, at 50.0 µM
About 79,000 compounds went through this panel and 15% of them were active in at least one assay; those are over-represented in the sample as a whole. Activity calls are given as the source filed them. No stated cut-off is given here; in the data, active means growth inhibition above about 70%; inactive means the rest.
The categories you may choose from are 1 (yes) = active, 0 (no) = inactive

# outcome recorded in this test, key = "COC(=O)c1cccc2cc3cccc[n+]3cc12"
0 (no)

# outcome recorded in this test, key = "CN1CN(c2ccccc2)C2(CCN(CCc3csc4ccccc34)CC2)C1=O"
0 (no)

# outcome recorded in this test, key = "S=P(c1ccccc1)(N1CCOCC1)N1CCOCC1"
0 (no)

# outcome recorded in this test, key = COc1cc(CC(C)N)ccc1O (stereo unspecified)
0 (no)

# outcome recorded in this test, key = "NC(=NCc1ccccc1)N[N+](=O)[O-]"
0 (no)

# outcome recorded in this test, key = "CCC[CH2][Sn-]([CH2]CCC)([CH2]CCC)[O]c1cc(Cl)c(Cl)cc1Cl"
1 (yes)

# outcome recorded in this test, key = "Cc1ccc(NP(=S)(Nc2ccc(C)cc2C)Nc2ccc(C)cc2C)c(C)c1"
0 (no)

# outcome recorded in this test, key = "CC(C)CCON=C(N)N"
0 (no)

# outcome recorded in this test, key = CCC(C)Sc1ccccc1OC(=O)NC (stereo unspecified)
0 (no)

# outcome recorded in this test, key = Cc1coc2c1CCC(C)C2 (stereo unspecified)
0 (no)

Further cases:
# outcome recorded in this test, key = "CCCCCCCCCCCCCC(=O)O[C@H]1CC[C@H](NC(=O)[C@H](OC)[C@H](O)[C@@H](O)[C@H](O)/C=C/C(C)C)C(=O)NC1"
1 (yes)

# outcome recorded in this test, key = "O=[As](O)(O)c1ccccc1Cl"
0 (no)

# outcome recorded in this test, key = "CCC[CH2][Sn]([CH2]CCC)([CH2]CCC)[CH2]S(=O)(=O)O"
1 (yes)

# outcome recorded in this test, key = CC1CC2C(CCC3(C)C2CC2(CC2)C3(C)O)C2(C)CCC(O)CC12O (stereo unspecified)
0 (no)

# outcome recorded in this test, key = "CCC(=O)C1(c2ccccc2)CCN(C)CC1"
0 (no)

# outcome recorded in this test, key = "O=C(COc1ccc(Cl)c(Cl)c1)Nc1cccc(S(=O)(=O)F)c1"
0 (no)

# outcome recorded in this test, key = "O=[N+]([O-])c1ccc(Cl)c(Cl)c1"
0 (no)

# outcome recorded in this test, key = "CN(C)C(=O)Oc1c(-c2ccccc2)c(=O)n2c3ccccc3n3c(=O)n(C)c(=O)c1c23"
0 (no)

# outcome recorded in this test, key = "C=CP(=O)(OCCCl)OCCCl"
0 (no)
